tested.target: furin, P09958;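 also: purified furin at 1:10 enzyme:substrate in 50 mM HEPES pH 7.5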
Sequence (P09958 whole entry): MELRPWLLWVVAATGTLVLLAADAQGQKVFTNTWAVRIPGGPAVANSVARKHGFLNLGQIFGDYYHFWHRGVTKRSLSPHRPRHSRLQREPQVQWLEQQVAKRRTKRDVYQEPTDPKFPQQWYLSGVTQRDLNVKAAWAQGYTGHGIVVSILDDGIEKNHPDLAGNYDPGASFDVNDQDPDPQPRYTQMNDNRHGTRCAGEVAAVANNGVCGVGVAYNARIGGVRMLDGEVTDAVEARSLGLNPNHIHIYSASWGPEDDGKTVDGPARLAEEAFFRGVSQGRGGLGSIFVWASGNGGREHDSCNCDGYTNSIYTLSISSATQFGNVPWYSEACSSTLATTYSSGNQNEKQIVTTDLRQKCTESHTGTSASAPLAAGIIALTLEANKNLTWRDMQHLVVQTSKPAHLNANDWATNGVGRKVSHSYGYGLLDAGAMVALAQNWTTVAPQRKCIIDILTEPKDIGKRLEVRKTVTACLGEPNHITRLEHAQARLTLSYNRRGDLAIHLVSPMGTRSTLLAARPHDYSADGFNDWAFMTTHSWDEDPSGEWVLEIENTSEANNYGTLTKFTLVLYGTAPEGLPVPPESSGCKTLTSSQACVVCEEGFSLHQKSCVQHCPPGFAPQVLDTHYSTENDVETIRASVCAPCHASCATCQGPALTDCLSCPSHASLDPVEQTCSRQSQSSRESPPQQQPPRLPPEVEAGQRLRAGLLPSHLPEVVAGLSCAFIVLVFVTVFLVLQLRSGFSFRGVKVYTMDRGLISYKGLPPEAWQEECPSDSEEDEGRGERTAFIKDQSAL
method.notes: furin cleavage Z-score vs untreated control; higher = more cleavage, active = 3.5 or more, inactive = 1 or less, 8 variable residues between constant flanks
conditions: 30 min
Some of the results follow. How many sequences the whole screen found active is unknown.
What furin cleavage Z-score was measured for each of the following?
No unit in the answer, only the number.

QUERY: Identify measured furin cleavage Z-score associated with CAQRHRQGRVAGNASASA [FS-849]
RESULT: 0.481

QUERY: Identify measured furin cleavage Z-score associated with CAIHHRQKRSAGNASASA [FS-540]
RESULT: 9.65

QUERY: Identify measured furin cleavage Z-score associated with CATGDNTTTSAGNASASA [HC1341]
RESULT: -0.0812

QUERY: Identify measured furin cleavage Z-score associated with CAPAIASLMAAGNASASA [HC1053]
RESULT: 0.347

QUERY: Identify measured furin cleavage Z-score associated with CAKVLRSRRSAGNASASA [FS-1353]
RESULT: 3.35

QUERY: Identify measured furin cleavage Z-score associated with CAILSRKKRSAGNASASA [FS-598]
RESULT: 8.58

QUERY: Identify measured furin cleavage Z-score associated with CADTGYPKRSAGNASASA [FS-1587]
RESULT: 2.06

QUERY: Identify measured furin cleavage Z-score associated with CAASSSKKRSAGNASASA [FS-1310]
RESULT: 0.28

QUERY: Identify measured furin cleavage Z-score associated with CALIVFPDLGAGNASASA [HC1450]
RESULT: -0.0519

QUERY: Identify measured furin cleavage Z-score associated with CAYCTTPCSGAGNASASA [HC1949]
RESULT: -0.156

QUERY: Identify measured furin cleavage Z-score associated with CAHNGRKKRSAGNASASA [FS-794]
RESULT: 9.77

QUERY: Identify measured furin cleavage Z-score associated with CAIALRLRRSAGNASASA [FS-32]
RESULT: 0.673

QUERY: Identify measured furin cleavage Z-score associated with CAHNGLRDLAAGNASASA [HC641]
RESULT: 0.434

QUERY: Identify measured furin cleavage Z-score associated with CAVVGCSMSYAGNASASA [HC2036]
RESULT: 1.23

QUERY: Identify measured furin cleavage Z-score associated with CAASRGNHVSAGNASASA [HC1122]
RESULT: 1.1
